The values you see were collected from PubChem BioAssay AID2060906.

test system: 485176-168-R4-J1-PDC complex spheroid growth; test: Anticancer human tumor 485176-168-R4-J1-PDC patient-derived pancreatic adenocarcinoma cell line growth inhibition [RAS]; details: second compound 0.0949 µM; first compound 0.0316 µM; stronger effect = lower value;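 also: spheroids exposed to compounds for seven days before readout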
// NB: equality with 80% counts as No; only viability, T/C strictly below is Yes

INPUT: Please determine if Cc1nc(N2CCC3(CC2)COC(C)C3N)c(CO)nc1Sc1ccnc(N)c1Cl (stereo not drawn) + CCn1c(-c2cc(N3CCN(C)CC3)cnc2C(C)OC)c2c3cc(ccc31)-c1csc(n1)CC(NC(=O)C1CC1C)C(=O)N1CCCC(N1)C(=O)OCC(C)(C)C2 is below 80% in terms of viability, T/C.
OUTPUT: No

INPUT: Please determine if CC(=O)OC12COC1CC(O)C1(C)C(=O)C(O)C3=C(C)C(OC(=O)C(O)C(NC(=O)OC(C)(C)C)c4ccccc4)CC(O)(C(OC(=O)c4ccccc4)C21)C3(C)C (stereo not drawn) + CCn1c(-c2cccnc2C(C)OC)c2c3cc(ccc31)N1CCOC(CC(NC(=O)C(C(C)C)N(C)C(=O)C3(F)CCN(C(=O)C#CC(C)(C)N(C)C)CC3)C(=O)N3CCCC(N3)C(=O)OCC(C)(C)C2)C1 is below 80% in terms of viability, T/C.
OUTPUT: Yes

INPUT: Please determine if CC(C)n1nc(-c2ccc3oc(N)nc3c2)c2c(N)ncnc21 + CCn1c(-c2cccnc2C(C)OC)c2c3cc(ccc31)N1CCOC(CC(NC(=O)C(C(C)C)N(C)C(=O)C3(F)CCN(C(=O)C#CC(C)(C)N(C)C)CC3)C(=O)N3CCCC(N3)C(=O)OCC(C)(C)C2)C1 is below 80% in terms of viability, T/C.
OUTPUT: Yes

INPUT: Please determine if NC1c2ccccc2OC12CCN(c1cnc3c(N4CCCc5ncccc54)n[nH]c3n1)CC2 (stereo not drawn) + CCn1c(-c2cccnc2C(C)OC)c2c3cc(ccc31)N1CCOC(CC(NC(=O)C(C(C)C)N(C)C(=O)C3(F)CCN(C(=O)C#CC(C)(C)N(C)C)CC3)C(=O)N3CCCC(N3)C(=O)OCC(C)(C)C2)C1 is below 80% in terms of viability, T/C.
OUTPUT: Yes

INPUT: Please determine if CCN1CCN(Cc2ccc(Nc3ncc(F)c(-c4cc(F)c5nc(C)n(C(C)C)c5c4)n3)nc2)CC1 + CCn1c(-c2cc(N3CCN(C)CC3)cnc2C(C)OC)c2c3cc(ccc31)-c1csc(n1)CC(NC(=O)C1CC1C)C(=O)N1CCCC(N1)C(=O)OCC(C)(C)C2 is below 80% in terms of viability, T/C.
OUTPUT: Yes

# input for lookup
INPUT: Please determine if CCC(CC)c1cc(NC2CCC(N)C2)n2nccc2n1 (stereo not drawn) + CCn1c(-c2cc(N3CCN(C)CC3)cnc2C(C)OC)c2c3cc(ccc31)-c1csc(n1)CC(NC(=O)C1CC1C)C(=O)N1CCCC(N1)C(=O)OCC(C)(C)C2 is below 80% in terms of viability, T/C.
OUTPUT: Yes
